Mean absorbance at 405 nm listing for selected binders.
- TARGET: T1, TSHR260-alkaline phosphatase (TSHR260-AP) (human, UniProt P05187 23-511)
- T1 construct: Fusion of human TSHR amino acids 22-260 (construct codes 1-260, 1-21 being the leader) with secreted alkaline phosphatase, expressed in insect cells; In the ELISA the antibody bridges full length detergent-solubilised TSHR coated on the wells and TSHR260-AP in the liquid phase
- PROCEDURE TEXT: TSHR260-AP bridge ELISA, full length TSHR on wells; 10 µg/mL, diluted in HBD
Returns: string containing the numeric result and its unit.

Example results:
K1-18 IgG (antibody, V domains shown, Human IgG1 kappa purified from hetero-hybridoma supernatant) VH: EVQLVQSGAEVKKPGESLKISCKGSGYSFTNYWIGWVRQMPGKGLEWMGIIYPYDSDTRYSPSFEGQVTISADKSIRTAYLHWSSLKASDTAMYYCVRPRDGSYPYDAFDIWGQGTMVTVSS VL: EIVLTQSPGTLSLSPGERATLSCRASQSVSNNYLAWYQQKPGQAPRLLIYGASSRATGIPDRFSGSGSGTDFTLTISRLEPEDFAVYYCQHCGSSLRAFGQGTKVEIKR = 0.66 absorbance at 405 nm
K1-70 Fab (Fab, V domains shown, residue limits as in claims 56 and 57) VH: EVQLVQSGAEVKKPGQSLKISCKASGYSLTDNWIGWVRQKPGKGLEWMGIIYPGDSDTRYSPSFQGQVTISADKSINTAYLQWSSLKASDTAIYYCVGLDWNYNPLRYWGPGTLVTVSS VL: QSVLTQPPSVSAAPGQKVTISCSGSSSDIGSNYVSWYQQFPGTAPKLLIYDNNKRPSAIPDRFSGSKSGTSATLGITGLQTGDEADYYCGTWDSRLGIAVFGGGTQLTVLG = 0.018 absorbance at 405 nm
K1-70 IgG (antibody, V domains shown, Human IgG1 lambda purified from hetero-hybridoma supernatant) VH: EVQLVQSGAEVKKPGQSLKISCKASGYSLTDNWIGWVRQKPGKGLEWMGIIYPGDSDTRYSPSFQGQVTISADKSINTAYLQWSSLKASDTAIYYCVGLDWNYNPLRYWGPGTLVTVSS VL: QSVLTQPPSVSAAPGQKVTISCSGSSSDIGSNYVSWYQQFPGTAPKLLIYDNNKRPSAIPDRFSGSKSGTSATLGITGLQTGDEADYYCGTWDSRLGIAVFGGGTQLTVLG = 0.738 absorbance at 405 nm

Input: Mean absorbance at 405 nm lookup needed for K1-18 Fab (Fab, V domains shown, residue limits as in claim 65) VH: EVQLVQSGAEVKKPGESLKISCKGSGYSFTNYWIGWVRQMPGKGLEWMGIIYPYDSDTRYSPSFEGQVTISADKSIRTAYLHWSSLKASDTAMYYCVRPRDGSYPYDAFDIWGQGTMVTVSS VL: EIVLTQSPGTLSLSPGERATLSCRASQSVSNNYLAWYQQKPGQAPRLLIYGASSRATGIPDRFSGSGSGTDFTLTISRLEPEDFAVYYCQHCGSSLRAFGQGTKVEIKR , thanks.
Output: -0.002 absorbance at 405 nm
